Experiment: SGF digest of 168 nutritive polypeptide library, intact protein by LC-MS/MS
Assay type: in vitro ADME
Settings: 168 nutritive polypeptide library SGF digest, LC-MS/MS spectral counts
Procedure: The in vitro intact half-life of multiple polypeptides in a complex mixture was determined using the simulated gastric in vitro digestion described above. […] The 168 Protein Library was treated with SGF as described above and the t=0 and t=10 min samples were analyzed for intact protein by LC-MS/MS. […] The samples were then analyzed by nano LC/MS/MS using an EasynLC 1000 HPLC system interfaced to a ThermoFisher Q Exactive. […]
Assay Endpoint: % Intact Protein at 10 min (%)
Write down the numeric answer in % and omit the unit.

State the recorded % Intact Protein at 10 min for this entry: SEQID-00620: protein of the 168 nutritive polypeptide library (protein, listed as Saccharomyces cerevisiae, source: /note="strain ATCC 204508 / S288c", protein of the 168 nutritive polypeptide library) MSDVEEVVEVQEETVVEQTAEVTIEDALKVVLRTALVHDGLARGLRESTKALTRGEALLVVLVSSVTEANIIKLVEGLANDPENKVPLIKVADAKQLGEWAGLGKIDREGNARKVVGASVVVVKNWGAETDELSMIMEHFSQQ
0

Continue with SEQID-00590: protein of the 168 nutritive polypeptide library (protein, listed as Lactobacillus acidophilus, source: /note="strain 30SC", protein of the 168 nutritive polypeptide library) MANKAELVSEVASKTKLTKKEVAAAVDAIFGSIQDNLAKGEKVQLIGFGTFEVRHRAARKGRNPQTGDEIEIPASEVPAFKPGKALKEAVK
0

Same for SEQID-00489: protein of the 168 nutritive polypeptide library (protein, listed as Saccharomyces cerevisiae, source: /note="strain ATCC 204508 / S288c", protein of the 168 nutritive polypeptide library) MSVEEVSKKFEENVSVDDTTATPKTVLSDSAHFDVKHPLNTKWTLWYTKPAVDKSESWSDLLRPVTSFQTVEEFWAIIQNIPEPHELPLKSDYHVFRNDVRPEWEDEANAKGGKWSFQLRGKGADIDELWLRTLLAVIGETIDEDDSQINGVVLSIRKGGNKFALWTKSEDKEPLLRIGGKFKQVLKLTDDGHLEFFPHSSANGRHPQPSITL
0
